System: T. cruzi intracellular amastigotes in H9c2 cells
assay.remarks: Rate-of-Kill (RoK) high-content imaging assay, amastigotes per cell (AM/CELL) and curve descriptors
Format: cell-based, Trypanosoma cruzi
Set-up: key: % reduction in parasite burden (cidal response)
assay.setup: 72h, figure 5
Please mark 1 (yes) if the recorded ME_72h is equal to or greater than 40, and 0 (no) if it falls below.

Answered cases to consult:
molecule	class.name
Cl.O=c1cc(NCCCNC2CCOc3c(I)cc(Cl)cc32)[nH]c2ccccc12 (centres unmarked) [TCMDC-139489]	1 (yes)
O=c1[nH]ccc2ccc(-c3ccncc3)cc12 [TCMDC-143631]	0 (no)
COc1ccc(NS(=O)(=O)c2cc(NC(=O)Cc3ccc(C)cc3)ccc2N2CCOCC2)cc1 [TCMDC-143313]	0 (no)
CN(C)CCOc1ccc(N2CCN(S(=O)(=O)c3ccc(Cl)cc3)CC2)cc1 [TCMDC-143622]	1 (yes)
Cc1cc2cncn2c(C2CCCCN2C(=O)c2cccs2)n1 (centres unmarked) [TCMDC-143500]	1 (yes)

Is ME_72h for Cc1cccnc1CN1CCN(CCCOc2ccc(-c3ccc(C(N)=O)cc3)cc2)CC1 [TCMDC-143291] at or above 40?
0 (no)

Is ME_72h for Cn1cncc1CN1CCC2(CC1)COC(Cc1ccccc1)C2 (centres unmarked) [TCMDC-143502] at or above 40?
1 (yes)

Is ME_72h for O=C(NCCc1ccccc1Cl)c1cccn1-c1cccnc1 [TCMDC-143253] at or above 40?
0 (no)

Is ME_72h for COc1ccc(S(=O)(=O)NCc2ccc(-c3ccc(CN(C)CCO)cc3)cc2)cc1.O=C(O)C(F)(F)F [TCMDC-143549] at or above 40?
1 (yes)

Is ME_72h for COc1ccc(S(=O)(=O)NC(C)C)cc1Nc1ncc(-c2cccc(F)c2)cn1 [TCMDC-143248] at or above 40?
1 (yes)

Is ME_72h for O[C@H]1CC[C@H](Nc2nccc(-c3sc(C4CCOCC4)nc3-c3ccc(F)c(F)c3)n2)CC1 [TCMDC-143387] at or above 40?
0 (no)

Is ME_72h for COc1cccc(C(=O)[C@H]2C[C@@H]2CN(Cc2cccnc2)Cc2cccnc2)c1 [TCMDC-143593] at or above 40?
0 (no)

Is ME_72h for Cc1[nH]c2ccccc2c(=O)c1Cc1c(C)[nH]c2ccccc2c1=O [TCMDC-143490] at or above 40?
1 (yes)

Is ME_72h for CNc1c(C(N)=O)c(-c2ccc3scnc3c2)nn1CC(F)(F)F.O=C(O)C(F)(F)F [TCMDC-143463] at or above 40?
0 (no)

Is ME_72h for CN(C(=O)Nc1ccc2c(c1)CCN(C1CCC1)CC2)c1ccc(C#N)cc1.Cl [TCMDC-143526] at or above 40?
0 (no)

Is ME_72h for CS(=O)(=O)c1cccc(-c2cnc(N)c3c(-c4ccc(CO)cc4)csc23)c1.O=C(O)C(F)(F)F [TCMDC-143410] at or above 40?
1 (yes)

Is ME_72h for CCCCn1nnnc1CSc1nc(C)cc(C)c1C#N [TCMDC-143315] at or above 40?
1 (yes)

###

Catalogue of MCC50 readings, one per entry.
Test system: T. cruzi intracellular amastigotes in H9c2 cells
assay.remarks: Rate-of-Kill (RoK) high-content imaging assay, amastigotes per cell (AM/CELL) and curve descriptors
Type: cell-based, Trypanosoma cruzi
assay.setup: figure 5; in µM
Experimental: For this high-content intracellular imaging assay, H9c2 cells were seeded in 225 cm^2 T- FLASK in DMEM with 10% FBS for 4 h to allow attachment. […] Trypomastigotes were then collected and counted in a CASY Cell Counter using the 60 μm capillary. […] Cells were counted in a CASY Cell Counter, using the 150 μm capillary, and their density set at 5 x 10^4 cells/mL in supplemented DMEM. […] Then plates were read in a PerkinElmer Opera Phenix using a 20x objective, 3 fields per well. […]
Give the value as a plain number.

compound	MCC50
O=C(NCCc1cccnc1)c1csc(-c2ccccc2)n1 [TCMDC-143203]	27.7778
CC(=O)Nc1nc(-c2cc(C)ccc2C)c(C)s1 [TCMDC-143207]	5.556
CC(C)N(C(=O)CN1C(=O)C(N)C(=O)N(c2ccccc2)c2ccccc21)c1ccccc1 (centres unmarked) [TCMDC-143071]	5.556

Entry CCC(=O)Nc1ccc(C(=O)Nc2ccccc2-c2ccccc2)cc1 [TCMDC-143286] needs its MCC50 filled in; supply it.
1.852

Entry O=C(CSc1ccc(-c2ccccn2)nn1)Nc1ccc(Cl)cc1 [TCMDC-143552] needs its MCC50 filled in; supply it.
16.6667

Entry COc1ccc(S(=O)(=O)NCc2ccc(-c3ccc(CN(C)CCO)cc3)cc2)cc1.O=C(O)C(F)(F)F [TCMDC-143549] needs its MCC50 filled in; supply it.
16.6667

Entry COc1ccc(C2CC(c3ccccc3Cl)=NN2C(=O)CNC(=O)C2CCC2)cc1 (centres unmarked) [TCMDC-143130] needs its MCC50 filled in; supply it.
5.556

Entry CCN(CC)S(=O)(=O)c1ccc(C(=O)Nc2cc(C)nn2-c2nc(C)c(C)c(=O)[nH]2)cc1 [TCMDC-143273] needs its MCC50 filled in; supply it.
25.9259

###

Catalogue of ME_72h (%) readings, one per entry.
Test system: T. cruzi intracellular amastigotes in H9c2 cells
assay.remarks: Rate-of-Kill (RoK) high-content imaging assay, amastigotes per cell (AM/CELL) and curve descriptors
Assay type: cell-based, Trypanosoma cruzi
assay.setup: maximum effect at 72 h, RoK assay

Some solved entries appear below for comparison.
compound	target.of.assay	observed
CN(C)CCOc1ccc(N2CCN(S(=O)(=O)c3ccc(Cl)cc3)CC2)cc1	T. cruzi intracellular amastigotes in H9c2 cells	72.3%
COc1cccc(C(=O)[C@H]2C[C@@H]2CN(Cc2cccnc2)Cc2cccnc2)c1	T. cruzi intracellular amastigotes in H9c2 cells	36.5%
O=S(=O)(c1cccc(CSc2nnc(-c3ccc4c(c3)OCO4)o2)c1)N1CCOCC1	T. cruzi intracellular amastigotes in H9c2 cells	33.6%

Entry CNc1cc(C)nc(C2CN(C(=O)c3n[nH]c4ccccc34)CCO2)c1 (stereo not shown) needs its ME_72h (%) filled in; supply it.
67.6%

###

Test system: T. cruzi intracellular amastigotes in H9c2 cells
assay.remarks: Rate-of-Kill (RoK) high-content imaging assay, amastigotes per cell (AM/CELL) and curve descriptors
Type: cell-based, Trypanosoma cruzi
assay.setup: at MCC50
measured.attribute: t50%_MCC50 (h)
Write the number in h without appending the unit.

Some solved entries appear below for comparison.
molecule	t50%_MCC50 / h
Cc1cc2cncn2c(C2CCCCN2C(=O)c2cccs2)n1 (stereo not shown) [TCMDC-143500]	72.0
Cn1cc(CN2CCN(c3ccc4c(c3)CCN(C(=O)[C@H]3C[C@@H]3c3ccccc3)CC4)CC2)cn1 [TCMDC-143537]	72.0
CC(=O)Nc1ccc(-c2noc(CC3CCCN(Cc4cccc(F)c4C)C3)n2)cc1 (stereo not shown) [TCMDC-143362]	72.0
Cc1c(C(=O)NCCCCn2ccnc2)oc2c(C)cccc12 [TCMDC-143304]	72.0
CNc1cc(C)nc(C2CN(C(=O)c3n[nH]c4ccccc34)CCO2)c1 (stereo not shown) [TCMDC-143494]	48.0
O=C(O)C(F)(F)F.O=c1oc2ccccc2n1C1CCN(Cc2ccccc2-c2cccnc2)CC1 [TCMDC-143389]	72.0

Entry CCC(=O)Nc1ccc(-c2nc3ccc(Cl)cc3[nH]2)cc1 [TCMDC-143135] needs its t50%_MCC50 filled in; supply it.
24.0

Entry CN1CCCN(C(=O)c2ccc(N3CCCC3)cc2Cl)CC1 [TCMDC-143127] needs its t50%_MCC50 filled in; supply it.
72.0

Entry CCC(=O)Nc1ccc(C(=O)Nc2ccccc2-c2ccccc2)cc1 [TCMDC-143286] needs its t50%_MCC50 filled in; supply it.
48.0

Entry O=C(NCCc1cccnc1)c1csc(-c2ccccc2)n1 [TCMDC-143203] needs its t50%_MCC50 filled in; supply it.
72.0

Entry CCCN(Cc1ccc(OC)c(OC)c1)Cc1cc(=O)c2c(C)cc(C)cc2[nH]1 [TCMDC-143331] needs its t50%_MCC50 filled in; supply it.
48.0

Entry CC1CS(=O)(=O)CCN1/N=C/c1ccc([N+](=O)[O-])o1 (stereo not shown) [Nifurtimox, nifurtimox, reference compound] needs its t50%_MCC50 filled in; supply it.
48.2

Entry COc1ccc(NS(=O)(=O)c2cc(-c3cc(C)[nH]n3)ccc2C)cc1OC [TCMDC-143194] needs its t50%_MCC50 filled in; supply it.
72.0

Entry O=C(CSc1ccc(-c2ccccn2)nn1)Nc1ccc(Cl)cc1 [TCMDC-143552] needs its t50%_MCC50 filled in; supply it.
72.0

Entry Cc1[nH]c2ccccc2c(=O)c1Cc1c(C)[nH]c2ccccc2c1=O [TCMDC-143490] needs its t50%_MCC50 filled in; supply it.
48.0
